Give cell viability for every item shown.
- System: P12-Ichikawa
- test.protocol: cell viability relative to DMSO control; higher = less cytotoxic
- measurement.conditions: HPLM + 10% dialyzed FBS; 48 h; 0.00702 µM
Numbers only, in %.

These recorded examples may help you get a feel for the data.
molecule | cell viability, %
C[S+](=O)([O-])Nc1ccc([N+](=O)[O-])cc1Oc1ccccc1 | 111
Cc1c(C)n(Cc2ccc(-c3ccccc3C(=O)O)cc2)c2ccc(C(=O)N[C@@H](C)c3ccc([N+](=O)[O-])cc3)cc12 | 102
O=C(Nc1cccc(C(F)(F)F)c1)Nc1cc([S+](=O)([O-])NC2CC2)ccc1-c1ccsc1 | 115
CCOC(=O)N1CCN(/[N+]([O-])=N/Oc2ccc([N+](=O)[O-])cc2C#N)CC1 | 108
C[C@@H](Oc1cc(-c2cnn(C3CCNCC3)c2)cnc1N)c1c(Cl)ccc(F)c1Cl | 115

# batch: return cell viability for each of the 4 molecules below
1. CC[C@H](NC1=C2N=C[NH]C2=NC=N1)C/3=N/C4=C(C(=CC=C4)F)C(=O)N3C5=CC=CC=C5
2. COC(=O)Nc1cc(Nc2cc(NC3CC3)c3ncc(C#N)n3n2)c(Cl)c(N2CCN(C)CC2)c1
3. OC[C@@H](O)[C@@H](O)[C@H](O)[C@@H](O)CO
4. COCC1(CO)C(=O)C2CCN1CC2 (centres undefined)

*A*
1. 122
2. 102
3. 107
4. 105

---

- System: P12-Ichikawa
- test.protocol: AUC of viability dose-response curve (% viability x log10 dose units); higher = less sensitive
- measurement.conditions: HPLM + 10% dialyzed FBS; 48 h
measured.property: AUC of viability dose-response curve
One number for each entry.

These recorded examples may help you get a feel for the data.
compound | target.of.assay | AUC of viability dose-response curve
CC(C)C1NC(=O)C(NC(=O)C2=C3\N=C\4/C(=C(C)\C(=O)\C(=C4C(=O)NC5C(C)OC(=O)C(C(C)C)N(C)C(=O)CN(C)C(=O)C6CCCN6C(=O)C(NC5=O)C(C)C)N)OC3=C(C)C=C2)C(C)OC(=O)C(C(C)C)N(C)C(=O)CN(C)C(=O)C7CCCN7C1=O (configuration not stated) | P12-Ichikawa | 31.2
CC(C)(O)CC[C@@H](O)[C@](C)(O)[C@H]1CC[C@@]2(O)C/3=C/C(=O)[C@@H]4C[C@@H](O)[C@@H](O)C[C@]4(C)[C@H]3CC[C@]12C | P12-Ichikawa | 453
CCN1CCN(c2ccc(Nc3cc(N(C)C(=O)Nc4c(Cl)c(OC)cc(OC)c4Cl)ncn3)cc2)CC1 | P12-Ichikawa | 429
OC[C@H]1O[C@H]([C@H](O)[C@@H]1O)N2\C=C/C(=O)NC2=O | P12-Ichikawa | 473
CCC1(c2ccccc2)C(=O)NCNC1=O | P12-Ichikawa | 471

# batch: return AUC of viability dose-response curve for each of the 5 compounds below
1. Clc1ccc(-c2nc3sccn3c2/C=N/OCc2ccc(Cl)c(Cl)c2)cc1
2. CCNC(=O)C[C@H]1/N=C(/C2=CC=C(Cl)C=C2)C3=CC(=CC=C3[N]4C(=NN=C14)C)OC
3. O=C1[C@H](Cc2ccc(O)cc2)N2C(=O)CCN(C(=O)NCc3ccccc3)[C@H]2CN1Cc1cccc2ccccc12
4. Cc1cc(Nc2cc(NC(=O)c3c(Cl)cccc3Cl)ccn2)nc(N)n1
5. OC(=O)C/1=C/C(=O)NC(=O)N1

*A*
1: 448; 2: 464; 3: 404; 4: 364; 5: 455

# batch: return AUC of viability dose-response curve for each of the 5 compounds below
1. CC(C)CNc1ccnc(NCc2csc(-c3ccccc3)n2)n1
2. Cc1nn(Cc2ccccc2Cl)c(C)c1CN(C)CC(O)COc1ccc(Cl)cc1 (configuration not stated)
3. CC(C)N[C@@H]1CCn2c(=O)[nH]c3cccc(c32)[C@H]1O
4. CN1CCN(C2=Nc3cc(Cl)ccc3Nc3ccccc32)CC1
5. CCCc1cc(C(N)=S)ccn1

*A*
[440, 463, 459, 477, 466]

# batch: return AUC of viability dose-response curve for each of the 2 compounds below
1. C[C@](Cc1c[nH]c2ccccc12)(NC(=O)OC1C2CC3CC(C2)CC1C3)C(=O)NC[C@H](NC(=O)CCC(=O)O)c1ccccc1 (some centres not stated)
2. CCN(CC)CCCCNc1ncc2cc(-c3cc(OC)cc(OC)c3)c(NC(=O)NC(C)(C)C)nc2n1

*A*
469
449

# batch: return AUC of viability dose-response curve for each of the 5 compounds below
1. OC(c1cc(C(F)(F)F)nc2c(C(F)(F)F)cccc12)C1CCCCN1 (configuration not stated)
2. O=C1NC(=O)/C(=C/c2ccc3nccc(-c4ccncc4)c3c2)S1
3. CN[C@@H]1[C@@H](O)[C@@H](O[C@@H]2[C@@H](O)[C@H](O[C@H]3O[C@H](CN)[C@@H](O)[C@H](O)[C@H]3O)[C@@H](N)C[C@H]2NC(=O)[C@@H](O)CN)OC[C@]1(C)O
4. C[N]1C=C(C=N1)C2=C3\C=N/NC(=O)C4=C3C(=CC(=C4)NC(=O)[C@H](N)C5CCCCC5)[NH]2
5. Cc1coc2c1C(=O)C(=O)c1c-2ccc2c(C)cccc12

*A*
[468, 341, 457, 395, 454]

---

- Test system: P12-Ichikawa
- test.protocol: cell viability relative to DMSO control; higher = less cytotoxic
- measurement.conditions: RPMI 5 mM glucose + 10% dialyzed FBS; 48 h; 15.4 µM
Give cell viability for every item shown.
One number for each entry, in %.

These recorded examples may help you get a feel for the data.
compound | cell viability, %
CC1(C)O[C@@H]2C[C@H]3[C@@H]4C[C@H](F)C5=CC(=O)C=C[C@]5(C)[C@@]4(F)[C@@H](O)C[C@]3(C)[C@]2(C(=O)CO)O1 | 36.8
ClC1=CC=C(C=C1)C(C#N)C2=C(Cl)C=C(C=C2Cl)N3\N=C/C(=O)NC3=O (stereo unspecified) | 79.6
COCC1(CO)C(=O)C2CCN1CC2 (stereo unspecified) | 64.2

# batch: return cell viability for each of the 3 compounds below
1. C[C@H]1C[C@@H]2[C@H](CC[C@@]3(C)[C@H]2CC[C@]3(OC(C)=O)C(C)=O)[C@@]\4(C)CCC(=O)\C=C14
2. OC[C@H]1O[C@H]([C@H](O)[C@@H]1O)N2\C=C/C(=O)NC2=O
3. O=C1c2ccccc2-[n+]2ccc3c([nH]c4ccccc43)c21

*A*
1. 80.1
2. 89.5
3. 3.39

---

Give cell viability for every item shown.
- Tested on: P12-Ichikawa
- test.protocol: cell viability relative to DMSO control; higher = less cytotoxic
- measurement.conditions: HPLM + 10% dialyzed FBS; 48 h; 1.71 µM
Numbers only, in %.

These recorded examples may help you get a feel for the data.
compound | quantitative.readout
S=C(NCc1ccc2c(c1)OCO2)N1CCN(c2ncnc3c2oc2ccccc23)CC1 | 95.6
COc1ccccc1OCC(O)COC(N)=O (centres undefined) | 117
Cc1ccccc1C(=O)c1ccc(Nc2ccc(Br)cc2N)cc1Cl | 114

Now for another entry.
*Q* cell viability for FC1=C(C=C(C\C2=N\NC(=O)C3=C2C=CC=C3)C=C1)C(=O)N4CCN(CC4)C(=O)C5CC5 ?
*A* 85.7

---

- Tested on: SEM cells
- test.protocol: cell viability relative to DMSO control; higher = less cytotoxic
- measurement.conditions: RPMI 5 mM glucose + 10% dialyzed FBS; 48 h; 46.1 µM
measured.property: cell viability (%)
Give bare numbers, in %.

smiles.data | target.of.assay | unit | cell viability
CC1(C)O[C@@H]2C[C@H]3[C@@H]4C[C@H](F)C5=CC(=O)C=C[C@]5(C)[C@@]4(F)[C@@H](O)C[C@]3(C)[C@]2(C(=O)CO)O1 | SEM cells | % | 49.2
C[C@]12CCC(=O)C=C1CC[C@@H]1[C@@H]2[C@@H](O)C[C@@]2(C)[C@H]1CC[C@]2(O)C(=O)CO | SEM cells | % | 62.7
CCN1\C=C(\C(O)=O)C(=O)C2=C1C=C(N3CCNCC3)C(=C2)F | SEM cells | % | 77.8

*Q* cell viability for c1ccc(CCCN2CCN(CCOC(c3ccccc3)c3ccccc3)CC2)cc1 ?
*A* 50.5

---

- Test system: NOMO1
- test.protocol: cell viability relative to DMSO control; higher = less cytotoxic
- measurement.conditions: RPMI 5 mM glucose + 10% FBS; 48 h; 15.4 µM
measured.property: cell viability (%)
One number for each entry, in %.

These recorded examples may help you get a feel for the data.
compound | cell viability, %
CC1(C)O[C@@H]2C[C@H]3[C@@H]4C[C@H](F)C5=CC(=O)C=C[C@]5(C)[C@@]4(F)[C@@H](O)C[C@]3(C)[C@]2(C(=O)CO)O1 | 97.9
C[C@]12CC[C@H]3[C@@H](CC[C@H]4NC(=O)\C=C/[C@]34C)[C@@H]1CC[C@@H]2C(=O)NC5=CC(=CC=C5C(F)(F)F)C(F)(F)F | 96.3
CCOC(=O)[C@@H](N)Cc1ccc(-c2cc(O[C@H](c3ccc(Cl)cc3-n3ccc(C)n3)C(F)(F)F)nc(N)n2)cc1.O=C(O)CNC(=O)c1ccccc1 | 90.1
CN[C@H]1CCC2=CC(=C(OC)C(=C2C/3=C/C=C(OC)\C(=O)/C=C13)OC)OC | 17.1
OC[C@H]1O[C@H]([C@H](O)[C@@H]1O)N2\C=C/C(=O)NC2=O | 91.6
C[C@](Cc1c[nH]c2ccccc12)(NC(=O)OC1C2CC3CC(C2)CC1C3)C(=O)NC[C@H](NC(=O)CCC(=O)O)c1ccccc1 (stereo partly drawn) | 153

# batch: return cell viability for each of the 2 compounds below
1. CCOC(=O)c1ccc(OC(=O)CCCCCNC(=N)N)cc1
2. COc1ccc([C@@H]2CC(=O)c3c(O)cc(O[C@@H]4O[C@H](CO[C@@H]5O[C@@H](C)[C@H](O)[C@@H](O)[C@H]5O)[C@@H](O)[C@H](O)[C@H]4O)cc3O2)cc1O

*A*
83
119
